I'd appreciate it if you could supply GI50 values for the items below.
# Tested on: A549 NSCLC
# Assay Protocol: NCI tumour cell line growth inhibition, 48 h

Tested on A549 NSCLC, the item "O=C(NCCCc1cn[nH]c1)c1ccc(-c2ccncc2)c(C#Cc2ccc(F)cc2)c1" showed GI50 equal to 481 nM

Tested on A549 NSCLC, the item "CC1(C)COC(c2ccc(CC(Cc3ccc(C4(C(C)(C)C)OCC(C)(C)CO4)cc3)C(=O)O)cc2)(C(C)(C)C)OC1" showed GI50 equal to 2060 nM

Tested on A549 NSCLC, the item "COc1ccc(-c2cncn2-c2cc(OC)c(OC)c(OC)c2)cc1" showed GI50 equal to 471 nM

Source: PubChem BioAssay (NCI)
